- System: UniProt O00180
- Sequence (O00180 1-336): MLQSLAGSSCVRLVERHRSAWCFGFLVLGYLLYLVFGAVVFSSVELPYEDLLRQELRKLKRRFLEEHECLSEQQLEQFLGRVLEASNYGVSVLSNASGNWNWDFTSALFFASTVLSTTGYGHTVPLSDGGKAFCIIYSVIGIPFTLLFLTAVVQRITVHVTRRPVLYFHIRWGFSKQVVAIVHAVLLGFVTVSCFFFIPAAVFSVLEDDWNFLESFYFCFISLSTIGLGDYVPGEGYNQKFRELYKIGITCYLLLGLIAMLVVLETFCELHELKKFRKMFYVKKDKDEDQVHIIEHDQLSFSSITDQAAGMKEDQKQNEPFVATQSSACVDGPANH
- Assay Explanation: Imposed voltage (two-microelectrode voltage-clamp) recording of TWIK-1 K+ currents in Xenopus oocytes injected with TWIK-1 cRNA
- Condition Parameters: Xenopus oocytes, +30 mV depolarization from HP -80 mV; read-out: IC50 of inhibition of the K+ currents of TWIK-1
pIC50: −log10 of the molar value.

Chemical String | pIC50
[Ba+2] | 4.00
